Target: IRAK4 (Homo sapiens, UniProt Q9NWZ3)
Construct: endogenous in cells; host or cells: Karpas299
Sequence (Q9NWZ3 1-460): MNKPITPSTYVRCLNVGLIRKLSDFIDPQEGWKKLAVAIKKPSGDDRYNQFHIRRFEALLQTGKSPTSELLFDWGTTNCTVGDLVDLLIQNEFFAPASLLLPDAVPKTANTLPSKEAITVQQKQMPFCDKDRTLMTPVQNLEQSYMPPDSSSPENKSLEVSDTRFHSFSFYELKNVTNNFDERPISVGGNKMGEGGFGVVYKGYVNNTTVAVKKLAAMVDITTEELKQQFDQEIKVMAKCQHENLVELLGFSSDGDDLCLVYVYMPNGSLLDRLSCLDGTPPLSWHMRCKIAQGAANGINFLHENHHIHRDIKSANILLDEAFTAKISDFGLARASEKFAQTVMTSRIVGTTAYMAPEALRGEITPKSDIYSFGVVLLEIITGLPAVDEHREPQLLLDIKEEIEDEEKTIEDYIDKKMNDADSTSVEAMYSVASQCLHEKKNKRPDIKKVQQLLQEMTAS
Experiment: IRAK4 Degradation Assay (Karpas299, HTRF/TR-FRET)
Format: cell-based
Details: Karpas-299 cells, 24 h treatment; maximum percentage of degradation; read-out: IRAK4 in Karpas-299 (24 h) Dmax (%)
Procedure: IRAK4 degradation was measured using a TR-FRET-based method (Degorce, François, et al. Current chemical genomics. 2009, 3: 22). […] IRAK4 level was quantitated using the HTRF kit as described by the manufacturer manual (Cisbio). FRET signals were measured using a PHERAstar FSX reader (BMG Labtech). […] The inhibition (degradation) percentage of the compound was calculated by the following equation: […]
metric: Dmax (%)

- CC(C)c1cc(-c2nc(C(=O)Nc3cn([C@H]4CC[C@H](N5CCN(C(=O)C6CN(c7cc(F)c([C@H]8CCC(=O)NC8=O)c(F)c7)C6)CC5)CC4)nc3C(F)F)co2)ccn1: 94
- CC(C)(O)c1cc2nn(C34CCC(N5CCN(C6CCN(c7cc(F)c([C@H]8CCC(=O)NC8=O)c(F)c7)CC6)CC5)(CC3)CC4)cc2cc1NC(=O)c1ccc2cc(C#N)cnn12: 97
- CC(C)(O)c1cc2nn([C@H]3CC[C@H](N4CCN(CCc5cc(F)c([C@H]6CCC(=O)NC6=O)c(F)c5)CC4)CC3)cc2cc1NC(=O)c1ccc2cc(Br)cnn12: 96
- COc1cc(N2CC(C(=O)N3CCN([C@H]4CC[C@H](n5cc6cc(NC(=O)c7ccc8cc(C#N)cnn78)c(C(C)(C)O)cc6n5)CC4)CC3)C2)ccc1[C@H]1CCC(=O)NC1=O: 98
- C[C@@H]1CN([C@H]2CC[C@H](n3cc4cc(NC(=O)c5ccc6cc(C#N)cnn56)c(C(C)(C)O)cc4n3)CC2)CCN1C(=O)C1CN(c2cc(F)c([C@H]3CCC(=O)NC3=O)c(F)c2)C1: 97

---

Target: IRAK4 (Homo sapiens)
Construct: endogenous in cells; host or cells: Karpas299
Test: IRAK4 Degradation Assay (Karpas299, HTRF/TR-FRET)
Assay type: cell-based
Settings: Karpas-299 cells, 24 h treatment; read-out: IRAK4 in Karpas-299 (24 h) DC50
metric: DC50 (nM)

* COC[C@H]1CN(CCc2cc(F)c([C@H]3CCC(=O)NC3=O)c(F)c2)CCN1[C@H]1CC[C@H](n2cc3cc(NC(=O)c4ccc5cc(C#N)cnn45)c(C(C)(C)O)cc3n2)CC1 [Example 321] | 1.4
* O=C1CCN(c2ccc(N3CC[C@H](C(=O)N4CCN([C@H]5CC[C@H](n6cc(NC(=O)c7coc(-c8ccnc(NCC9CC9)c8)n7)c(C(F)F)n6)CC5)CC4)C3)cc2)C(=O)N1 [Example 22] | 6.8
* C[C@@H]1CN([C@H]2C[C@H](c3cc(F)c([C@H]4CCC(=O)NC4=O)c(F)c3)C2)CCN1[C@H]1CC[C@H](n2cc3cc(NC(=O)c4ccc5cc(C#N)cnn45)c(C(C)(C)O)cc3n2)CC1 [Example 366] | 1.4

a = COC[C@@H]1CN([C@H]2CC[C@H](n3cc4cc(NC(=O)c5ccc6cc(C#N)cnn56)c(C(C)(C)O)cc4n3)CC2)CCN1C(=O)C1CN(c2cc(F)c([C@H]3CCC(=O)NC3=O)c(F)c2)C1 [Example 186]
b = CC(C)(O)c1cc2nn([C@H]3CC[C@H](N4CCN(C(=O)[C@@H]5CCN(c6cc(F)c(N7CCC(=O)NC7=O)c(F)c6)C5)CC4)CC3)cc2cc1NC(=O)c1cccc(C(F)(F)F)n1 [Example 115]
c = NC(=O)c1nn(-c2ccc(N3CCN(C(=O)C4CN(c5ccc(N6CCC(=O)NC6=O)cc5)C4)CC3)nc2)cc1NC(=O)c1coc(-c2ccnc(NCC(F)(F)F)c2)n1 [Example 28]
d = C[C@@H]1CN(C(=O)C2CN(c3cc(F)c([C@H]4CCC(=O)NC4=O)c(F)c3)C2)CCN1[C@H]1CC[C@H](n2cc3cc(NC(=O)c4ccc5cc(C#N)cnn45)c(C(C)(C)O)cc3n2)CC1 [Example 298]
e = [2H]C([2H])([2H])Oc1cc2nn([C@H]3CC[C@H](N4CCN(C(=O)[C@@H]5CCN(c6cc(F)c(N7CCC(=O)NC7=O)c(F)c6)C5)CC4)CC3)cc2cc1NC(=O)c1cccc(C(F)(F)F)n1 [Example 174]
Put the entries in order of DC50, starting with the largest number. Write out the labels following the order that was asked for.
e, b, c, a, d
(e: 7.7 nM, b: 3.8 nM, c: 2.5 nM, a: 0.9 nM, d: 0.3 nM)

P = COc1cc2nn([C@H]3CC[C@H](NC(=O)C4CCN(c5ccc6c(c5)C(=O)N(C5CCC(=O)NC5=O)C6=O)CC4)CC3)cc2cc1NC(=O)c1cccc(C(F)(F)F)n1 (stereo partly shown) [Example 32]
Q = Cc1cc(C2CCC(=O)NC2=O)c(F)cc1[C@H]1C[C@@H](N2CCN([C@H]3CC[C@H](n4cc5cc(NC(=O)c6ccc7cc(C#N)cnn67)c(C(C)(C)O)cc5n4)CC3)CC2)C1 (stereo partly shown) [Example 296]
R = CC(C)(O)c1cc2nn([C@H]3CC[C@H](N4CCN(CCNc5cccc6c5C(=O)N(C5CCC(=O)NC5=O)C6=O)CC4)CC3)cc2cc1NC(=O)c1ccc2cc(C#N)cnn12 (stereo partly shown) [Example 437]
S = CC(C)(O)c1cc2nn([C@H]3CC[C@H](CN4CCN(C5CN(c6cc(F)c([C@H]7CCC(=O)NC7=O)c(F)c6)C5)CC4)CC3)cc2cc1NC(=O)c1ccc2cc(C#N)cnn12 [Example 421]
Please give the order of these compounds when sorted by DC50, largest value leading. API: response body holds the labels in the requested order.
R, P, Q, S

Data origin, for the record: patent US20250195513A1
